Target: ERα (Homo sapiens, UniProt P03372)
Sequence (P03372 whole entry): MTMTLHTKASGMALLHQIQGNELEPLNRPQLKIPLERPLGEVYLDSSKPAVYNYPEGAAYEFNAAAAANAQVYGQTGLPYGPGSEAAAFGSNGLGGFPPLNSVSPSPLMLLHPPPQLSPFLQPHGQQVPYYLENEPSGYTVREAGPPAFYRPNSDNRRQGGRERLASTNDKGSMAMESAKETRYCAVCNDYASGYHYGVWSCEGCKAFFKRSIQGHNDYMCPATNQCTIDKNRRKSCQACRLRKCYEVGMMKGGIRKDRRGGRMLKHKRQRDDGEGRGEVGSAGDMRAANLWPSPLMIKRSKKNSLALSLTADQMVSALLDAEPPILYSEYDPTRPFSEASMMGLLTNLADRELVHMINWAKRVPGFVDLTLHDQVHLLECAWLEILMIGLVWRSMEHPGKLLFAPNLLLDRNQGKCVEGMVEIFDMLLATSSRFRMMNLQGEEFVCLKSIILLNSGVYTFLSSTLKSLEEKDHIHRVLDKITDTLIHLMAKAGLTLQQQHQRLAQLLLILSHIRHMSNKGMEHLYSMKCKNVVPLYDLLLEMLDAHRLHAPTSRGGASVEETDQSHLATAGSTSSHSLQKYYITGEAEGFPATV
Experiment: Degradation of ERα in MCF-7 cells (immunoblotting, 4 h)
Assay type: cell-based
Conditions: 10nM compound
Measured Degradation rate (%) of ERα in MCF-7 cells values are reported for all entries that follow.
Number in %, nothing else.

Some entries whose results are on file:
O=C1CCC(N2Cc3c(ccc4c3OCC43CCN(C(=O)C(=O)N4CCC5(CCN(c6ccc([C@@H]7c8ccc(O)cc8CC[C@@H]7c7ccccc7)cc6)CC5)C4)CC3)C2=O)C(=O)N1 (some centres unmarked)	69
O=C1CCC(N2Cc3c(ccc4c3OCC43CCN(CC4(F)CCN(C(=O)C5CCN(c6ccc([C@@H]7c8ccc(O)cc8CC[C@@H]7c7ccccc7)cc6)CC5)CC4)CC3)C2=O)C(=O)N1 (some centres unmarked)	43
O=C1CCC(N2C(=O)c3cc4c(cc3C2=O)OC2(CC4)CCN(CC3CCN(c4ccc(C5c6ccc(O)cc6CCC5c5ccccc5)cc4)CC3)CC2)C(=O)N1 (centres unmarked)	-17
O=C1CCC(N2Cc3c(ccc4c3OCC43CCN(C(=O)C4CCN(C(=O)C5CCN(c6ccc([C@@H]7c8ccc(O)cc8CC[C@@H]7c7ccccc7)cc6)CC5)CC4)CC3)C2=O)C(=O)N1 (some centres unmarked)	61

Please turn your attention to the following entry.
(Q) Given the compound O=C1CCC(N2Cc3c(ccc4c3OCC43CCN(C4CCN(CC5CCN(c6ccc([C@@H]7c8ccc(O)cc8CC[C@@H]7c7ccccc7)cc6)CC5)CC4F)CC3)C2=O)C(=O)N1 (some centres unmarked) , what is its reported Degradation rate (%) of ERα in MCF-7 cells?
(A) 78

Just for reference, patent EP4656642A1 is where these values come from.
